Data origin, for the record: patent US20030162818A1

Recorded inhibition at 5.6 µM by entry
system.name: acetyl-CoA carboxylase (ACC) (Rattus norvegicus)
Construct: subjected to decapitation and bloodletting under ether anesthesia to quickly take out the liver; from tissue; host or cells: rat liver (male SD rat, fasted then fed a high-sucrose feed)
experiment: Measurement of ACC inhibition activity (14C-bicarbonate incorporation, ACC purified from rat liver)
Assay type: biochemical
conditions: 5.6 × 10^−6 M compound; ACC purified from SD rat liver
Please give a number only; it is taken to be in %.

// known answers, use as guide
>  <compound>
CC(C)(C)c1ccc(COc2cccc(C(=O)Nc3ccccc3S(=O)(=O)NC(=O)/C=C/c3ccccc3)c2)cc1 [Example 13]

>  <unit.annotation>
%

>  <inhibition at 5.6 µM>
79.5

$$$$
>  <compound>
CCCCCCCCCC(=O)NS(=O)(=O)c1ccccc1NC(=O)c1cccc(OCc2ccc(C(C)(C)C)cc2)c1 [Example 31]

>  <unit.annotation>
%

>  <inhibition at 5.6 µM>
67.6

$$$$
>  <compound>
CCCCCCCCCC(=O)NS(=O)(=O)c1ccccc1NC(=O)c1ccc(C#Cc2ccccc2)cc1 [Example 40]

>  <unit.annotation>
%

>  <inhibition at 5.6 µM>
76

$$$$

Would you kindly share the measured inhibition at 5.6 µM for CCCCCCCCCC(=O)NS(=O)(=O)c1ccccc1NC(=O)c1cccc(OCC2CCCCC2)c1 [Example 28] ?
89.4
